- Target Under Test: Integrin alpha-4/beta-1 (Homo sapiens, UniProt P05556+P13612)
- Sequence (P05556 whole entry): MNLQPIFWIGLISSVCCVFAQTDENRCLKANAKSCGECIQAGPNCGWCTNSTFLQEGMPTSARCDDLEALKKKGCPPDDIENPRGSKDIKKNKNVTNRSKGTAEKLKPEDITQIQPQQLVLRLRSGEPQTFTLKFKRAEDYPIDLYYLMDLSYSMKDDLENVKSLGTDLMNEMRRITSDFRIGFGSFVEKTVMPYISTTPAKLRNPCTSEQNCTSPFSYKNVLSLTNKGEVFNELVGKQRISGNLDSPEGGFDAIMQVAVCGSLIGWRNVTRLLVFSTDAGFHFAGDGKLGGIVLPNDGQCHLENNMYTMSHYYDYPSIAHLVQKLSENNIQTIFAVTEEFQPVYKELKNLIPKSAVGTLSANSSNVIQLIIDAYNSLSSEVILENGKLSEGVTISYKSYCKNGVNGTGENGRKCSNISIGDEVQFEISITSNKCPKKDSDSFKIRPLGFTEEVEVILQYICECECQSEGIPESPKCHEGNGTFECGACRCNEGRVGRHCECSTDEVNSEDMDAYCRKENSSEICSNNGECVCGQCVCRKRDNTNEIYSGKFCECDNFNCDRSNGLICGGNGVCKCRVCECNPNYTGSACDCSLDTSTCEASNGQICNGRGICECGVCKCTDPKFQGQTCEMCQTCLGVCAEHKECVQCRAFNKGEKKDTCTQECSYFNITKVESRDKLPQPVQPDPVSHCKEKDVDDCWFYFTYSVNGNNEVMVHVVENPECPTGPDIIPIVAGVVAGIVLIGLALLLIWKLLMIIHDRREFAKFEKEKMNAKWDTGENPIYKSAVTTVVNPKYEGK
- Sequence (P13612 whole entry): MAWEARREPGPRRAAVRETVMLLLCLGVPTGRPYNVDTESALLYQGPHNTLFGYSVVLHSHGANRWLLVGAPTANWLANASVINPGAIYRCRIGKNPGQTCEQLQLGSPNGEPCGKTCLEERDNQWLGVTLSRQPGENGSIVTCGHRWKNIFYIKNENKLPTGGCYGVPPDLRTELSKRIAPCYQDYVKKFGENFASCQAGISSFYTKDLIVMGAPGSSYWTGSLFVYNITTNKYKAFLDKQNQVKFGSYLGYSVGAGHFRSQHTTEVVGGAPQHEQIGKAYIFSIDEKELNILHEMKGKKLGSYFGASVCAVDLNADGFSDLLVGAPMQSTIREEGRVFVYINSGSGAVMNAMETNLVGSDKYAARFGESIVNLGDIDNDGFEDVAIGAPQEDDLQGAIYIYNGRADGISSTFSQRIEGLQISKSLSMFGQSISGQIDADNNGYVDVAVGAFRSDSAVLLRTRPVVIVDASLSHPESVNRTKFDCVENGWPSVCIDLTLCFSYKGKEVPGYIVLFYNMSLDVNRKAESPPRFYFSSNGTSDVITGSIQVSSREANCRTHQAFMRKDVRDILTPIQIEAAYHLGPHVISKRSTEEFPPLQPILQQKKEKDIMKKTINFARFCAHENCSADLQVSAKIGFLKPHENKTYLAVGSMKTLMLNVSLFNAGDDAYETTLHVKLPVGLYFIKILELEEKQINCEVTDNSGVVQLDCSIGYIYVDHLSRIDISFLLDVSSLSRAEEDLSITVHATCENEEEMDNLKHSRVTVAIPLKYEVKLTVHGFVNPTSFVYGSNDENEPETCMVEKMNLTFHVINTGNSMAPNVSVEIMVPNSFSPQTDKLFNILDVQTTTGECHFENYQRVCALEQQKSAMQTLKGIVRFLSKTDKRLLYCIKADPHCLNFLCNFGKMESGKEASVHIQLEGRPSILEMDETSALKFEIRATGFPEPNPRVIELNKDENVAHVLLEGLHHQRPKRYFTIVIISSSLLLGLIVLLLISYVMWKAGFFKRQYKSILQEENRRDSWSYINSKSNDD
- Test: Concentration required to inhibit the VCAM-Very late antigen4 (VLA4) interaction in ELISA cell-based assay
- Type: functional
Measured Endpoint: IC50 (nM)

// below: answered molecules
> print(dat)
                                   molecule  unit.of.measure  experimental.value
1  O=C(Nc1ccccc1)c1ccc(C[C@H](NC(=O)[C@@H]2CCC(=O)N2Cc2ccccc2)C(=O)O)cc1               nM                  57
2  O=C(O)[C@H](Cc1cccc(C(=O)N2CCN(C(=O)c3ccccc3)CC2)c1)NC(=O)[C@@H]1CCC(=O)N1Cc1ccccc1               nM                 120

[A] CCN(CC)C(=O)C(Cc1ccc(O)cc1)NC(=O)c1cccc(C[C@H](NC(=O)[C@@H]2CCC(=O)N2Cc2ccccc2)C(=O)O)c1 (some centres undefined)
[B] O=C(O)[C@H](Cc1ccc(C(=O)N2CCN(C(=O)c3ccccc3)CC2)cc1)NC(=O)[C@@H]1CCC(=O)N1Cc1ccccc1
Input line: Pick one: A or B . Which one has the lower reported IC50? Give the label under which the chosen entry appears.
Output line: B

* * *

- Target Under Test: Integrin alpha-4/beta-1 (Homo sapiens, UniProt P05556+P13612)
- Test: Concentration required to inhibit the VCAM-Very late antigen4 (VLA4) interaction in Ramos cell-based assay
- Type: functional
Measured Endpoint: IC50 (nM)

// below: answered molecules
> print(dat)
                              smiles.string                         target.under.test  unit.of.measure  experimental.value
1  CC(=O)N[C@@H](Cc1ccc(O)cc1)C(=O)Nc1ccc(C[C@H](NC(=O)[C@H]2CCC(=O)N2Cc2ccccc2)C(=O)O)cc1  Integrin alpha-4/beta-1 (Homo sapiens, UniProt P05556+P13612)               nM                2100
2  CC(=O)N1CCN(C(=O)c2ccc(C[C@H](NC(=O)[C@@H]3CCC(=O)N3Cc3ccccc3)C(=O)O)cc2)CC1  Integrin alpha-4/beta-1 (Homo sapiens, UniProt P05556+P13612)               nM                5500
3  COc1ccc(S(=O)(=O)N2CCN(C(=O)c3ccc(C[C@H](NC(=O)[C@@H]4CCC(=O)N4Cc4ccccc4)C(=O)O)cc3)CC2)cc1  Integrin alpha-4/beta-1 (Homo sapiens, UniProt P05556+P13612)               nM                9530

[I] COc1ccc(S(=O)(=O)N2CCN(C(=O)c3cccc(C[C@H](NC(=O)[C@@H]4CCC(=O)N4Cc4ccccc4)C(=O)O)c3)CC2)cc1
[II] CC(=O)c1ccccc1NC(=O)c1ccc(C[C@H](NC(=O)[C@@H]2CCC(=O)N2Cc2ccccc2)C(=O)O)cc1
[III] O=C(O)[C@H](Cc1ccc(C(=O)N2CCN(C(=O)c3cccc(O)c3)CC2)cc1)NC(=O)[C@@H]1CCC(=O)N1Cc1ccccc1
[IV] O=C(O)[C@H](Cc1ccc(C(=O)N2CCN(S(=O)(=O)c3ccccc3)CC2)cc1)NC(=O)[C@@H]1CCC(=O)N1Cc1ccccc1
Input line: Arrange items by their IC50 values in increasing order. // format: requested-order list of labels
Output line: III, II, IV, I
(III: 470 nM, II: 940 nM, IV: 2200 nM, I: 7800 nM)

* * *

- Target Under Test: Integrin alpha-4/beta-1 (Homo sapiens, UniProt P05556+P13612)
- Test: Concentration required to inhibit the VCAM-Very late antigen4 (VLA4) interaction in ELISA cell-based assay
- Format: functional
Measured Endpoint: IC50 (nM)

> print(dat)
                              smiles.string                         target.under.test  unit.of.measure  experimental.value
1  COc1ccc(CNC(=O)c2ccc(C[C@H](NC(=O)[C@@H]3CCC(=O)N3Cc3ccccc3)C(=O)O)cc2)cc1  Integrin alpha-4/beta-1 (Homo sapiens, UniProt P05556+P13612)               nM                  61
2  CC(=O)c1ccccc1NC(=O)c1ccc(C[C@H](NC(=O)[C@@H]2CCC(=O)N2Cc2ccccc2)C(=O)O)cc1  Integrin alpha-4/beta-1 (Homo sapiens, UniProt P05556+P13612)               nM                   4

[1] O=C(O)[C@H](Cc1ccc(C(=O)N2CCN(C(=O)c3ccc(O)cc3)CC2)cc1)NC(=O)[C@@H]1CCC(=O)N1Cc1ccccc1
[2] CC(=O)N[C@@H](Cc1ccc(O)cc1)C(=O)Nc1ccc(C[C@H](NC(=O)[C@H]2CCC(=O)N2Cc2ccccc2)C(=O)O)cc1
Input line: Pick one: 1 or 2 . Which one has the lower reported IC50? Give the label under which the chosen entry appears.
Output line: 1
